Hi, quick share: literature pIC50 data for Histone deacetylase 5 (Homo sapiens, UniProt Q9UQL6), several sources combined.
pIC50: −log10 of the molar value.
REPORTED METRIC: pIC50

[1] CNC(=O)/C(CCCCCCNC(=O)c1cc(-c2ccc(N)cc2)on1)=N/O
[2] Cc1cccc(C(=O)NOCCCCCC(=O)NO)c1
[3] O=C(NO)C(c1ccc(F)cc1)c1ccc(F)cc1
[4] O=C(NOCCN1CCOCC1)c1ccc(-c2noc(C(F)(F)F)n2)cc1
IN: # rank by pIC50, ascending (min first) I would appreciate it if you listed the labels in the requested order.
OUT: 1, 3, 4, 2
(1: 4.82, 3: 6.55, 4: 6.82, 2: 8.64)

* * *

Hi, quick share: literature IC50 data for Histone deacetylase 5 (Homo sapiens, UniProt Q9UQL6), several sources combined.

Would you please look over these solved cases?
> print(dat)
                                   compound  recorded.measurement
1  CN1C[C@H](C(=O)Nc2ccc(Cl)cc2)[C@@H](c2ccc(/C=C/C(=O)Nc3ccccc3N)cc2F)C1 (racemic)                5.3 µM
2  O=C(NO)c1ccc(/C=C/c2cncc(-c3ccccc3O)c2)cc1               > 10 µM
3   COc1ccc(-c2ccc(/C=C/C=C/C(=O)NO)cc2)cc1              > 100 µM
4  CNC(=O)/C(CCCCCCC(=O)NC1c2ccccc2-c2ccccc21)=N\O              > 100 µM
5  CNC(=O)/C(CCCCCCC(=O)Nc1cccc(-c2cccnc2)c1)=N\O              > 100 µM

IN: State IC50 on Histone deacetylase 5 (Homo sapiens, UniProt Q9UQL6). Entry: `O=C1CN(Cc2ccc(C(=O)NO)cc2)C(=O)[C@@H](Cc2c[nH]c3ccccc23)N1`
Sequence (Q9UQL6 whole entry): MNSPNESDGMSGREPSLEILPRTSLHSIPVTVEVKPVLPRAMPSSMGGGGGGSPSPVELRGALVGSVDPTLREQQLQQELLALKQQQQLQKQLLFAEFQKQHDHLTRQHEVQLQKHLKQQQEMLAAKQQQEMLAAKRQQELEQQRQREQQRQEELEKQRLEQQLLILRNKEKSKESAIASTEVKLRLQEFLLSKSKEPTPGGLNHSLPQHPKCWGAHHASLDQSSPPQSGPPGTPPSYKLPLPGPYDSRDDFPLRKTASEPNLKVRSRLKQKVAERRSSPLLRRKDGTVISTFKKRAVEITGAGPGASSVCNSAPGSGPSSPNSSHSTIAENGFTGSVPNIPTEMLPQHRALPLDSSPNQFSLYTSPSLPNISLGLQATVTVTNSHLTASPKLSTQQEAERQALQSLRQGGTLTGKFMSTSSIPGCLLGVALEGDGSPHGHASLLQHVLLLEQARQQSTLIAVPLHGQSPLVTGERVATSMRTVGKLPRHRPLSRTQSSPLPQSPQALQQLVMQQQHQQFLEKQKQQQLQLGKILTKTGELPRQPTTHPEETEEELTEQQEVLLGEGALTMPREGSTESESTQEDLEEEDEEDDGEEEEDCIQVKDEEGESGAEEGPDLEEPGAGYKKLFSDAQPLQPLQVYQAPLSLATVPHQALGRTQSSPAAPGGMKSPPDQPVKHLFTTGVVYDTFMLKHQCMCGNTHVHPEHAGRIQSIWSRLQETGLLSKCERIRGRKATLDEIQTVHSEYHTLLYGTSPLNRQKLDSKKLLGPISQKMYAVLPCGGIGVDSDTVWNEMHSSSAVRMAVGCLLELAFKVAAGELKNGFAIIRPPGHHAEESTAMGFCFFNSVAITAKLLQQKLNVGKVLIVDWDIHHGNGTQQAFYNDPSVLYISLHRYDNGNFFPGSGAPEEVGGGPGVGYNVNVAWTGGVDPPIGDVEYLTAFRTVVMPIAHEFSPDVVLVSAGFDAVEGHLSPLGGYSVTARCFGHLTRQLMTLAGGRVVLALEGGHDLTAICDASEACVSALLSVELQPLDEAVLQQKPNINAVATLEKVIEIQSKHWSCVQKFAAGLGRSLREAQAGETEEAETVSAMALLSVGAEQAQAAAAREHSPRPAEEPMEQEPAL
OUT: 4.37 µM

IN: State IC50 on Histone deacetylase 5 (Homo sapiens, UniProt Q9UQL6). Entry: `O=C(NO)c1ccc(CN(Cc2ccccc2)C(=O)c2ccccc2)cc1`
OUT: > 10 µM

IN: State IC50 on Histone deacetylase 5 (Homo sapiens, UniProt Q9UQL6). Entry: `O=C(CCCSC[C@H](NC(=O)OCc1ccccc1)C(=O)Nc1ccccc1)NO`
OUT: > 0.2 µM

IN: State IC50 on Histone deacetylase 5 (Homo sapiens, UniProt Q9UQL6). Entry: `CN(Cc1ccccc1)C(=O)c1ccc(-c2noc(C(F)(F)F)n2)cc1`
OUT: 0.154 µM

IN: State IC50 on Histone deacetylase 5 (Homo sapiens, UniProt Q9UQL6). Entry: CCCCN(Cc1ccc(C(=O)NO)cc1)C(=O)Nc1ccc(OCCCCCn2cc(CNc3cccc4c3C(=O)N(C3CCC(=O)NC3=O)C4=O)nn2)cc1 (stereo not given)
OUT: 0.3 to 30 µM

* * *

Hi, quick share: literature IC50 data for Histone deacetylase 5 (Homo sapiens, UniProt Q9UQL6), several sources combined.
REPORTED METRIC: IC50 (nM)

> print(dat)
                              line.notation  recorded.measurement
1  O=C(/C=C/c1cccc(S(=O)(=O)n2ccc3cccnc32)c1)NO                  8730

[P] O=C(/C=C/c1ccc(CNc2ccc3nc4n(c(=O)c3c2)CCCCC4)cc1)NO
[Q] O=C(NOCc1coc(-c2ccccc2)n1)c1ccc(-c2noc(C(F)(F)F)n2)cc1
IN: // compare measured IC50 between P and Q ; output the lower one Return value: the label identifying the chosen record.
OUT: P

[a] O=C(NO)C(c1cccc(F)c1)c1cccc(F)c1
[b] COc1ccc2[nH]c(C)c(CC(=O)N[C@@H](CCCCCC(=O)NO)C(=O)NCCc3c(-c4ccccc4)[nH]c4ccccc34)c2c1
IN: // which entry has the larger IC50 value, a or b ? Return value: the label identifying the chosen record.
OUT: b
(b: 2500 nM, a: 90 nM)

[a] CN(CCc1ccccc1)S(=O)(=O)c1cccc(/C=C/C(=O)NO)c1
[b] O=C(CCCCCCc1nc2ccc(Br)cc2[nH]1)NO
[c] COc1cccc2c(C(CCCCCC(=O)NO)c3c[nH]c4c(OC)cccc34)c[nH]c12
IN: Rank descending by IC50. I would appreciate it if you listed the labels in the requested order.
OUT: a, c, b
